Items are presented alongside their recorded EC50(ng/ml), 混合淋巴细胞反应(MLR), CD4+ T细胞增殖 (cck8).
Target: PD-L1 (UniProt Q9NZQ7 19-238, limits assumed)
Sequence (Q9NZQ7 19-238 limits assumed): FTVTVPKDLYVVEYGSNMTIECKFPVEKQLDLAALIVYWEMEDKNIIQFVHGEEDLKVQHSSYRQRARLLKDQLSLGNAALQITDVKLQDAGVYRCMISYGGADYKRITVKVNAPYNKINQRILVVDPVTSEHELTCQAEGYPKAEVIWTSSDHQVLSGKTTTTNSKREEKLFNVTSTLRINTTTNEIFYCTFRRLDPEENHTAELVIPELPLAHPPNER
Assay: cell-based or functional assay
Form entry: value (ng/mL) — number only.

In the examples that follow, each entry is paired with its recorded EC50(ng/ml), 混合淋巴细胞反应(MLR), CD4+ T细胞增殖 (cck8).
binder="AH10-B11 全抗体 (full antibody, human IgG1/kappa) (antibody, V domains shown, Full antibody expressed in HEK293E from vector pTSE; also called AH10-811) VH: EVQLVESGGGLVQPGGSLRLSCAASGWTLSDSLQHWVRQAPGKGLEWVGFQSAYGGSTYYADSVKGRFTISADTSKNTAYLQMNSLRAEDTAVYYCARRHYYTAWDYWGQGTLVTVSS VL: DIQMTQSPSSLSASVGDRVTITCRASQNIHNSLAWYQQKPGKAPKLLIYGASSLESGVPSRFSGSGSGTDFTLTISSLQPEDFATYYCQQERRVPWTFGQGTKVEIKR" u=ng/mL experimental_value=9.88
binder="BH2-E3 全抗体 (full antibody, human IgG1/kappa) (antibody, V domains shown, Full antibody expressed in HEK293E from vector pTSE) VH: EVQLVESGGGLVQPGGSLRLSCAASGLTWSDSYKHWVRQAPGKGLEWVHWNSTYGGSTYYADSVKGRFTISADTSKNTAYLQMNSLRAEDTAVYYCARRHFASTWDYWGQGTLVTVSS VL: DIQMTQSPSSLSASVGDRVTITCRASQSIHNYLAWYQQKPGKAPKLLIYSASNLPSGVPSRFSGSGSGTDFTLTISSLQPEDFATYYCQQGLHTPPTFGQGTKVEIKR" u=ng/mL experimental_value=7.71

Request: Input AC9-B11 全抗体 (full antibody, human IgG1/kappa) (antibody, V domains shown, Full antibody expressed in HEK293E from vector pTSE) VH: EVQLVESGGGLVQPGGSLRLSCAASGCTWSDSWDHWVRQAPGKGLEWVDYESTYGGSTYYADSVKGRFTISADTSKNTAYLQMNSLRAEDTAVYYCARRHWNATFDYWGQGTLVTVSS VL: DIQMTQSPSSLSASVGDRVTITCRASQNIHNSLAWYQQKPGKAPKLLIYGASSLESGVPSRFSGSGSGTDFTLTISSLQPEDFATYYCQQERRVPWTFGQGTKVEIKR , output reported EC50(ng/ml), 混合淋巴细胞反应(MLR), CD4+ T细胞增殖 (cck8).
Result: 7.58
